Reference source: ChEMBL document CHEMBL4368868

- SYSTEM TESTED: Amine oxidase [flavin-containing] B (Homo sapiens, UniProt P27338)
- Sequence (P27338 whole entry): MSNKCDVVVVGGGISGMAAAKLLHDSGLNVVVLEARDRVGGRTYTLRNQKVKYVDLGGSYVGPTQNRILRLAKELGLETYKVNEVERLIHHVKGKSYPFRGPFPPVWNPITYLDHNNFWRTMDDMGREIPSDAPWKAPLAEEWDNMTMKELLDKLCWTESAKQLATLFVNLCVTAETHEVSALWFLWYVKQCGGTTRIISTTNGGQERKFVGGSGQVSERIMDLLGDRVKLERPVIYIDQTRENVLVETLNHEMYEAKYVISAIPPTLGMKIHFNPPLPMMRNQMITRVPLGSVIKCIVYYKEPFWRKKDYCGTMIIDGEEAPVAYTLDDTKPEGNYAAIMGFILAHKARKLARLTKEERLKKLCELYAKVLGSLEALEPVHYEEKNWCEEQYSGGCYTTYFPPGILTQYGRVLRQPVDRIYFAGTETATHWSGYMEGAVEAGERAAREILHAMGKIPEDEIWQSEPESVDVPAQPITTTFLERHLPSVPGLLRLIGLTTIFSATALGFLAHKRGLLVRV
In this section we review reported IC50 values for a set of compounds.

- GIVEN SMILES: "CN(C)c1ccc(/C=N/NC(N)=S)cc1"
  EXPERIMENTAL VALUE: "> 10 µM"
- GIVEN SMILES: "NC(=S)N/N=C/c1ccc(Cl)cc1"
  EXPERIMENTAL VALUE: "> 10 µM"
- GIVEN SMILES: "CCc1ccc(/C=N/NC(N)=S)cc1"
  EXPERIMENTAL VALUE: "> 10 µM"
- GIVEN SMILES: "Cc1ccc(/C=N/NC(N)=S)cc1"
  EXPERIMENTAL VALUE: "> 10 µM"
- GIVEN SMILES: "NC(=S)N/N=C/c1cccc(F)c1"
  EXPERIMENTAL VALUE: "0.27 µM"
- GIVEN SMILES: "NC(=S)N/N=C/c1ccc(O)cc1"
  EXPERIMENTAL VALUE: "> 10 µM"
- GIVEN SMILES: "N=C(S)N/N=C/c1ccc(C(F)(F)F)cc1"
  EXPERIMENTAL VALUE: "> 10 µM"
- GIVEN SMILES: "NC(=S)N/N=C/c1ccc(F)cc1"
  EXPERIMENTAL VALUE: "> 10 µM"

[ask] Find the recorded IC50 belonging to "NC(=S)N/N=C/c1ccccc1F" and report it.
[reply] 7.61 µM
